- TARGET DESC: T1, recombinant YFV E protein (soluble E, sE; YFV Asibi strain) (Yellow fever virus, Asibi strain, UniProt Q6DV88 286-678)
- T1 construct: also called YFV E antigen; YFV E monomer
- T1 sequence (Q6DV88 286-678): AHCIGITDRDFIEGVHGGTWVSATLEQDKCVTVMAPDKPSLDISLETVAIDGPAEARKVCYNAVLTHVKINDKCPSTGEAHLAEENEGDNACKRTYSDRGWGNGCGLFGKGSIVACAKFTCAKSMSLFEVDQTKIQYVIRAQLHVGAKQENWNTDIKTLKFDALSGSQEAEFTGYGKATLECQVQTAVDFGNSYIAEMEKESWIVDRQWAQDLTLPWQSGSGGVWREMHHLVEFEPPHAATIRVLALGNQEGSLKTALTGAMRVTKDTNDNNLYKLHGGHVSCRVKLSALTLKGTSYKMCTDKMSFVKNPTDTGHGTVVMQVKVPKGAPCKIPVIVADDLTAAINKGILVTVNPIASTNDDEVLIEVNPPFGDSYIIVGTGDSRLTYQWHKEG
- MEASUREMENT PROTOCOL: BLI monovalent (IgG on tip)
MEASURED ENDPOINT: Kd (nM)
All answers are understood in nM, so give the number only.

[
  {
    "BINDER": "ADI-49139 (antibody, V domains shown, full-length IgG; also called Antibody Number 11) VH: EVQLVETGSGLVRPSGTLSLTCAVSGDSISSNNWWSWVRQPPGKGLEWIGEIYHSGSTSYNPSLKSRVTISIDKSNNHFSLKLTSVTAADTAVYYCAKDMWAGTTTNWFGPWGQGTLVTVSS VL: QSVLTQPPSVSAAPGQKVTISCSGSSSNIGYSHVSWYQQLPGTAPKVLIYDNDKRPSGIPDRFSGSKSGTSATLGITGLQTGDEADYYCGTWDTSLGVVFGGGTKLTVL",
    "READOUT UNITS": "nM",
    "OBSERVED VALUE": 3.45
  },
  {
    "BINDER": "ADI-49168 (antibody, V domains shown, full-length IgG; also called Antibody Number 73) VH: EVQLLESGGGLVQPGGSLRLSCAASGFTFSSYAMSWVRQATGRGLEWVSSIRSSGGRTEYADSVKGRFTISRDNSKNTLYLQMDSLRAEDTALYYCAKHYDSSGYYYEDYWGQGTLVTVSS VL: DIVLTQSPSTLSASVGDRVTITCRASQSISDWLAWYQQKPGKAPGLLIYRASGLESGVPSRFSGSGSGTEFTLTISSLQPDDFATYYCHQYKDFPWTFGQGTKVDIK",
    "READOUT UNITS": "nM",
    "OBSERVED VALUE": 24.1
  },
  {
    "BINDER": "ADI-42195 (antibody, V domains shown, full-length IgG; also called Antibody Number 116) VH: EVQLLESGGGMVQPGRSLRLSCAASGFTFDDYDMHWVRQGPGKGLEWVSGISWNSGGRGYADSVKGRFTISRDNAKNSLYLQMNSLRVEDTALYYCVKDYCSGGRCYSFDYWGQGTLVTVSS VL: DIQMTQSPSSLSASVGDRVTITCQASQDISNYLNWYQQKPGKAPKLLIYDVSKLKTGVPPRFSGSGSGTDFTFTISSLQPEDIATYYCQQWGTFGQGTKVDIK",
    "READOUT UNITS": "nM",
    "OBSERVED VALUE": 1.86
  }
]

Then there is this binder:
Request the reported Kd associated with ADI-42193 (antibody, V domains shown, full-length IgG; also called Antibody Number 95) VH: EVQLLESGGGLVQPGGSLRLSCAASGFIFSDHYMAWVRQAPGKGLEWVGRSRNRPNSYTTEYAASAKGRFTISRDDSKTSLYLQMNSLKTEDTAVYYCAREHGDYGLDYWGQGTLVTVSS VL: QPVLIQPPSASGTPGQRVTISCSGSSSNFGSNFVYWYQQLPGTAPKLLIYRVNQRPSGVPDRFSGSKSGTSASLAISGLRSEDEADYYCATWDVSLSNDVLFGGGTKLTVL
0.922

src = patent US20240218054A1
